target: human ether-à-go-go-related gene (hERG) potassium channel (human); test: primary screen, population patch clamp on CHO cells stably expressing hERG; higher = less effect of the substance;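 note: peak tail current of the secondary pulse compared with the same well before compound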
Sequence (Q12809 whole entry, looked up): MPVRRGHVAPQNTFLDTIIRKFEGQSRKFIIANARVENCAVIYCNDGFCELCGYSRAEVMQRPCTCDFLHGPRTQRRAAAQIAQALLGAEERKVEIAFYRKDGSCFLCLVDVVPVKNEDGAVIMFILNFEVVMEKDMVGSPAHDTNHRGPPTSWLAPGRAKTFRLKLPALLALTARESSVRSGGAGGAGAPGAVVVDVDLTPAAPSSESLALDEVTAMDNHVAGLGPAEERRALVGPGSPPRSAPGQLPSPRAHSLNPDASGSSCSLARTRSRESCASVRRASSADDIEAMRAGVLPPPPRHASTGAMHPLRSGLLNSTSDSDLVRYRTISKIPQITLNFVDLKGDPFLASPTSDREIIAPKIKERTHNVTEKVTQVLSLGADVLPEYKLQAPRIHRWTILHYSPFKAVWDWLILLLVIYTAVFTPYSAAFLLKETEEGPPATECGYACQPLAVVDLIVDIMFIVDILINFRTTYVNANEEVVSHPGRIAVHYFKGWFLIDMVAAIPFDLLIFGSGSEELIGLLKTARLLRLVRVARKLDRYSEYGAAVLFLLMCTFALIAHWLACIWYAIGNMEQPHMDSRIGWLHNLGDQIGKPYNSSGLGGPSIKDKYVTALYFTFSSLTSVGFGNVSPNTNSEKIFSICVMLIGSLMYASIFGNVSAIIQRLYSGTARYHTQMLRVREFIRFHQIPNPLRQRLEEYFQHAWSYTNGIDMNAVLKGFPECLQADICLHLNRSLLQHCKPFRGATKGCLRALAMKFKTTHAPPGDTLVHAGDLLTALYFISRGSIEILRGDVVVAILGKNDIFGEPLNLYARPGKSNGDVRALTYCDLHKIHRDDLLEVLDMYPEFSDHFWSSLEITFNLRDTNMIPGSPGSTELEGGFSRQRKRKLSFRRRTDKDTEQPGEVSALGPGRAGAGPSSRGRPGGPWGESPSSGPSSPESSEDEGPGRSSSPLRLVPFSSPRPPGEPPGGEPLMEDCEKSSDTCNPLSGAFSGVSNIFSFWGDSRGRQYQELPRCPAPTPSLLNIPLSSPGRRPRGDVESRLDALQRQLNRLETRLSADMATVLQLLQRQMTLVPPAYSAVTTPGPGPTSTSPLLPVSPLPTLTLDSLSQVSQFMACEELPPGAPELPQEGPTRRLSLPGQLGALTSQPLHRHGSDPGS
In all, about 310,000 compounds went through this assay and about 14,000 (4.5%) showed an effect of 50% or more. The effect is printed as a negative number. Many of the other results were omitted from the sample, so strong results are more common in it than they were.
Measure: hERG current change (%, negative = inhibition) at 10uM (%)
Report as a plain number; the unit % is understood.

So what's the measured hERG current change (%, negative = inhibition) at 10uM for this one? COc1ccc(CN2CCC(CO)(Cc3cccc(C(F)(F)F)c3)CC2)cc1Cn1cccn1
-75.7

So what's the measured hERG current change (%, negative = inhibition) at 10uM for this one? COc1ccc(CN2CCN(CC=C(C)C)C(CCO)C2)cc1Cn1cccn1 (stereo not drawn)
-31.2

Please give the measured hERG current change (%, negative = inhibition) at 10uM for this molecule: Cc1ccc(NC(=O)c2cccc(N3C(=O)CCC3=O)c2)nc1
3.86

Would you mind telling me what hERG current change (%, negative = inhibition) at 10uM value was observed for Fc1ccccc1-c1csc(=Nc2cccnc2)n1CCCn1ccnc1 ?
-60.1

Form field: reported hERG current change (%, negative = inhibition) at 10uM of c1cncc(N=c2scc(-c3cccc4ccccc34)n2CCCn2ccnc2)c1
-56.5

Given the entry CCCNC(=O)c1cccc(COCC(F)(F)F)c1 , report its measured hERG current change (%, negative = inhibition) at 10uM.
-2.57

Field request: hERG current change (%, negative = inhibition) at 10uM | item: O=C(NCc1ccccc1)C(=O)NCC1OCCN1S(=O)(=O)c1ccc2c(c1)OCCO2 (stereo not drawn)
-3.14

I have this molecule here, COCCn1c(-c2cccs2)csc1=Nc1cccnc1 , and I need its recorded hERG current change (%, negative = inhibition) at 10uM.
-15.3

Requested read-out: hERG current change (%, negative = inhibition) at 10uM. Entry: NC1=NC(=O)/C(=C/c2ccccc2OS(=O)(=O)c2ccccc2)S1
5.2

What measured hERG current change (%, negative = inhibition) at 10uM goes with O=C(COC(=O)CCCN1C(=O)c2ccccc2C1=O)Nc1ncc(Cl)cc1Cl ?
-9.74

# query: hERG current change (%, negative = inhibition) at 10uM of entry CN1CCC(OC(=O)c2cccc(F)c2)CC1.Cl
-0.186

GET /values?readout=hERG current change (%, negative = inhibition) at 10uM&item= Cc1ccc(NC(=O)COC(=O)C2CC2(Cl)Cl)cc1C (stereo not drawn)
-4.06

For CCOC(=O)/C(C#N)=N/Nc1ccc(S(=O)(=O)Nc2cc(OC)nc(OC)n2)cc1 , what is its reported hERG current change (%, negative = inhibition) at 10uM?
-13.1

For the molecule shown here, N#Cc1ccsc1NC(=O)c1ccc(Cl)c([N+](=O)[O-])c1 , give the reported hERG current change (%, negative = inhibition) at 10uM.
21

Request the reported hERG current change (%, negative = inhibition) at 10uM associated with Fc1ccccc1-c1csc(=Nc2cccnc2)n1CC1CCCO1 (stereo not drawn)
-16.8

Give the measured hERG current change (%, negative = inhibition) at 10uM of CCCSCCCNC(=O)CN1C(=O)COc2ccc(S(=O)(=O)N3CCCC3)cc21 .
2.87

# lookup: hERG current change (%, negative = inhibition) at 10uM of O=C1CN(S(=O)(=O)c2cccc(Cl)c2Cl)c2ccccc2N1
3.58

Query (molecule): Cc1cc(C)n(-c2ccc(Cl)c(C(=O)OCC(=O)N3CCCCC3C)n2)n1 (stereo not drawn) ; field requested: hERG current change (%, negative = inhibition) at 10uM
-4.12

For the molecule shown here, N#Cc1ccccc1Oc1ccccc1C=O , give the reported hERG current change (%, negative = inhibition) at 10uM.
-16.8

Item under review: CC1=NN(C(N)=S)C(=O)C1N=Nc1ccccc1C(=O)O (stereo not drawn) . Reported hERG current change (%, negative = inhibition) at 10uM?
22.1

I am curious: what hERG current change (%, negative = inhibition) at 10uM value has been reported for COc1ccc(CN2CCC(CO)(Cc3ccccc3)CC2)cc1Cn1cccn1 ?
-76.5
